# credit: paper PMC4312721

# systemTested: PLD1 (Homo sapiens, UniProt Q13393)
# Sequence (Q13393 1-1074): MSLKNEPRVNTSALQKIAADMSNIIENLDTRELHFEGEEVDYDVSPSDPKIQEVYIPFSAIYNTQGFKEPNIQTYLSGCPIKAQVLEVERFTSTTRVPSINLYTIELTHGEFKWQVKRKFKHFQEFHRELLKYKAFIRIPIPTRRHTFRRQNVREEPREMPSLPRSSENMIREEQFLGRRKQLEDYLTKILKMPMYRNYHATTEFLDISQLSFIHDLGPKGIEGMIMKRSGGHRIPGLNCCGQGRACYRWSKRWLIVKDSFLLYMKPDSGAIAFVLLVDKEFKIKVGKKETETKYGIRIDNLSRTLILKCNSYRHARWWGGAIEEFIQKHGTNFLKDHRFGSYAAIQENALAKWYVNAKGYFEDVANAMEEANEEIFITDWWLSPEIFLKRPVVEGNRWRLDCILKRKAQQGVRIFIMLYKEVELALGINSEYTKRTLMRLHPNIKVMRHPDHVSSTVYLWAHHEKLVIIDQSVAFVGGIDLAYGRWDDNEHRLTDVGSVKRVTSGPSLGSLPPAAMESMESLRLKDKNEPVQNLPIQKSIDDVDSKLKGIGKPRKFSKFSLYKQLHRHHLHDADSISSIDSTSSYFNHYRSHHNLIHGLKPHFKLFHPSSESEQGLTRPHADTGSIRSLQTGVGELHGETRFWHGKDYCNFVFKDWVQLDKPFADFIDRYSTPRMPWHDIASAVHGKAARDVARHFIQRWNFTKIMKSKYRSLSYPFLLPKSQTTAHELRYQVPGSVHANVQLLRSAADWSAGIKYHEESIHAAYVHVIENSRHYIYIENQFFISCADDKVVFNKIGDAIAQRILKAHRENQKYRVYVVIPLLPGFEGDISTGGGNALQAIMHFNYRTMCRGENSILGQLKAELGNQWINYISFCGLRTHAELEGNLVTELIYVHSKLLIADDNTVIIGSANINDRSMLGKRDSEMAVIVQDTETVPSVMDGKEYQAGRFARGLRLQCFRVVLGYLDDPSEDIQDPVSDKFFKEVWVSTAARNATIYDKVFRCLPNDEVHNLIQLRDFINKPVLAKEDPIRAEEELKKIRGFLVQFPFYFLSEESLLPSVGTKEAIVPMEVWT
observationType: pIC50
# pIC50: negative log10 of molar concentration; output just the value

[ask] Answer with the recorded pIC50 of O=C(NCCN1CCC(n2c(=O)[nH]c3ccccc32)CC1)c1cc2cc(F)ccc2[nH]1 [FIPI] only.
[reply] 7.52
